Value source: patent US20200390100A1

Reported Stellaria media values for the following compounds.
test system: Stellaria media; assay: Herbicidal post-emergence action (Part 2), 1280 g/ha; type: in vivo; settings: application rate 1280 g/ha, rated visually after about 3 weeks, Table C7
// units = %; emit number, no label

| compound | assay_readout | recorded_number |
| --- | --- | --- |
| CCC(=O)OC1N(c2cc(C(C)(C)C)on2)C(=O)N(C)CC1(C)C (centres unmarked) | Stellaria media | 100 |
| CCCC(=O)OC1CCN(C)C(=O)N1c1cc(C(F)(F)F)c(Cl)cn1 (centres unmarked) | Stellaria media | 100 |
| CC(C)C(=O)OC1CCN(C)C(=O)N1c1cc(C(C)(C)C)no1 (centres unmarked) | Stellaria media | 100 |
| CCCC(=O)OC1CC(C)N(C)C(=O)N1c1cc(C(F)(F)F)ccn1 (centres unmarked) | Stellaria media | 90 |

Lab note: next compound to report on.
compound CN1CCC(O)N(c2cc(C(C)(C)C)n(C)n2)C1=O (centres unmarked) , Stellaria media observed: 100
